These entries and their values trace back to the supplement of paper PMC11003180.

- Test system: MDCK p60AmotL2-inducible + doxycycline (p60AmotL2 expressing)
- ASSAY METHOD TEXT: drug sensitivity score (DSS) from 5-dose viability curve (DSS (area-based score, 0 = no response)); higher = more sensitive (stronger viability inhibition); extreme values may be limits of the assay
- RECORDED CONDITIONS: doxycycline: 10 ng/mL; 72 h
Catalogue of drug sensitivity score values
REPORTED METRIC: drug sensitivity score

* CCS(=O)(=O)c1cccc(-c2cc(C(=O)NC3CCN(C)CC3)c(C)c3[nH]c4ncc(C)cc4c23)c1 [TAK-901] | 1.8
* Nc1nc2[nH]cc(CCc3ccc(C(=O)N[C@@H](CCC(=O)O)C(=O)O)cc3)c2c(=O)[nH]1 [Pemetrexed] | 7.1
* CCc1c(C(=O)C(N)=O)c2c(OCC(=O)O)cccc2n1Cc1ccccc1 [Varespladib] | 0
* CN1CCN(C(=O)c2ccc3cc(CCNc4ncnc5ccc(C#N)cc45)ccc3c2)CC1 [Senexin B] | 0.6
* COc1cc(C)[nH]c(=O)c1CNC(=O)c1c(C)n([C@H](C)C2CCOCC2)c2ccccc12 [CPI-360] | 1.3
* Cc1cc2c(C(=O)NC[C@H](C)c3ccccc3)c(O)c(O)cc2c(O)c1-c1c(C)cc2c(C(=O)NC[C@H](C)c3ccccc3)c(O)c(O)cc2c1O [Sabutoclax] | 23
* CC1CCC(n2c3cnccc3c3cnc(Nc4ccc5c(n4)CCN(C(=O)CO)C5)nc32)CC1 (configuration not stated) [AMG-925] | 1.3
